system: S. aureus SA0422; assay: microbe, parasite or virus in culture; details: Staphylococcus aureus, SA0422, read-out: MIC values, Table S1: SA0422 DAP (derivative after 40 passages on daptomycin)
In plain terms, low MIC, meaning strictly below 0.5 µg/mL, gives MET, and everything else gives NOT MET.

• Cc1onc(-c2ccccc2)c1C(=O)N[C@@H]1C(=O)N2[C@@H]1SC(C)(C)[C@@H]2C(=O)O = NOT MET
• Cn1nnc(-c2ccc(-c3ccc(N4C[C@H](CO)OC4=O)cc3F)cn2)n1 = MET
• CC(=O)O[C@H]1C[C@@]2(C)[C@@H](C[C@@H](O)[C@H]3[C@@]4(C)CC[C@@H](O)[C@@H](C)[C@@H]4CC[C@@]32C)/C1=C(\CCC=C(C)C)C(=O)O = MET
• CC(=O)NC[C@H]1CN(c2ccc(N3CCOCC3)c(F)c2)C(=O)O1 = NOT MET
• CO[C@@]1(NC(=O)Cc2cccs2)C(=O)N2C(C(=O)O)=C(COC(N)=O)CS[C@@H]21 = NOT MET
• CN(C)c1cc(NC(=O)CNC(C)(C)C)c(O)c2c1C[C@H]1C[C@H]3[C@H](N(C)C)C(O)=C(C(N)=O)C(=O)[C@@]3(O)C(O)=C1C2=O = MET
• O=C(O)c1cn(C2CC2)c2cc(N3CCNCC3)c(F)cc2c1=O = NOT MET

---

test system: S. aureus ATCC 29213; experiment: microbe, parasite or virus in culture; details: Staphylococcus aureus, ATCC29213, read-out: MIC values
measured_property: MIC (µg/mL)

* CO[C@H]1/C=C/O[C@@]2(C)Oc3c(C)c(O)c4c(O)c(c(/C=N/N5CCN(C)CC5)c(O)c4c3C2=O)NC(=O)/C(C)=C\C=C\[C@H](C)[C@H](O)[C@@H](C)[C@@H](O)[C@@H](C)[C@H](OC(C)=O)[C@@H]1C [Rifampicin] | 0.004
* CC(=O)NC[C@H]1CN(c2ccc(N3CCOCC3)c(F)c2)C(=O)O1 [Linezolid] | 2
* COc1c(N2C[C@@H]3CCCN[C@@H]3C2)c(F)cc2c(=O)c(C(=O)O)cn(C3CC3)c12 [Moxifloxacin] | 0.125
* O=C(O)c1cn(C2CC2)c2cc(N3CCNCC3)c(F)cc2c1=O [Ciprofloxacin] | 0.25
* Cn1nnc(-c2ccc(-c3ccc(N4C[C@H](CO)OC4=O)cc3F)cn2)n1 [Tedizolid] | 0.25
* CC[C@H]1OC(=O)[C@H](C)[C@@H](O[C@H]2C[C@@](C)(OC)[C@@H](O)[C@H](C)O2)[C@H](C)[C@@H](O[C@@H]2O[C@H](C)C[C@H](N(C)C)[C@H]2O)[C@](C)(O)C[C@@H](C)C(=O)[C@H](C)[C@@H](O)[C@]1(C)O [Erythromycin] | 0.25
* C/C(=C\C(=O)OCCCCCCCCC(=O)O)C[C@@H]1OC[C@H](C[C@@H]2O[C@H]2[C@@H](C)[C@H](C)O)[C@@H](O)[C@H]1O [Mupirocin] | 1

---

Listed here: items and their measured MIC.
tested on: S. aureus SA0085; assay: microbe, parasite or virus in culture; details: Staphylococcus aureus, SA0085, read-out: MIC values, Table S1: SA0085 VAN (derivative after 40 passages on vancomycin)
measured_property: MIC (µg/mL)

* O=C(O)c1cn(C2CC2)c2cc(N3CCNCC3)c(F)cc2c1=O | 32
* Cn1nnc(-c2ccc(-c3ccc(N4C[C@H](CO)OC4=O)cc3F)cn2)n1 | 0.06
* CC(=O)NC[C@H]1CN(c2ccc(N3CCOCC3)c(F)c2)C(=O)O1 | 1
* CN(C)[C@@H]1C(O)=C(C(N)=O)C(=O)[C@@]2(O)C(O)=C3C(=O)c4c(O)cccc4[C@@](C)(O)[C@H]3C[C@@H]12 | 0.125
* Cc1onc(-c2ccccc2)c1C(=O)N[C@@H]1C(=O)N2[C@@H]1SC(C)(C)[C@@H]2C(=O)O | 32
* CCO/N=C(\C(=O)N[C@@H]1C(=O)N2C(C(=O)[O-])=C(Sc3nc(-c4cc[n+](C)cc4)cs3)CS[C@H]12)c1nsc(N)n1 | 0.125
* CO[C@@]1(NC(=O)Cc2cccs2)C(=O)N2C(C(=O)O)=C(COC(N)=O)CS[C@@H]21 | 4
